Sourced from patent US20230263822A1

- Measurement conditions: rat, in vivo, sc, 50 mg/kg
e = 2'-O-(2-methoxyethyl) (MOE); d = 2'-deoxy (DNA)
Listed here: items and their measured Urine protein/creatinine ratio.
Property label: Urine protein/creatinine ratio

Substance	Experimental result
ISIS 416851: MOE gapmer, nucleobases 1275 to 1318 of SEQ ID NO: 1 (Table 8) (antisense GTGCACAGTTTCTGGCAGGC; MOE gapmer, wing and gap sizes not given here)	4.0
ISIS 416860: MOE gapmer, nucleobases 1275 to 1318 of SEQ ID NO: 1 (Table 8) (antisense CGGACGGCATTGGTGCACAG; MOE gapmer, wing and gap sizes not given here)	4.6
ISIS 416859: MOE gapmer, nucleobases 1275 to 1318 of SEQ ID NO: 1 (Table 8) (antisense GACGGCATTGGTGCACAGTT; MOE gapmer, wing and gap sizes not given here)	3.3
ISIS 416856: MOE gapmer, nucleobases 1275 to 1318 of SEQ ID NO: 1 (Table 8) (antisense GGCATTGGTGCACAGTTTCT; MOE gapmer, wing and gap sizes not given here)	2.7
ISIS 416867: MOE gapmer, nucleobases 1275 to 1318 of SEQ ID NO: 1 (Table 8) (antisense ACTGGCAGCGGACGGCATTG; MOE gapmer, wing and gap sizes not given here)	3.1
ISIS 416861: MOE gapmer, nucleobases 1275 to 1318 of SEQ ID NO: 1 (Table 8) (antisense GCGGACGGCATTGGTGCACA; MOE gapmer, wing and gap sizes not given here)	5.1
ISIS 412225: 5-10-5 MOE gapmer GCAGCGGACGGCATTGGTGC (sugars from the 5' end e5 d10 e5, backbone and methylation of C not given here)	4.0
ISIS 416852: MOE gapmer, nucleobases 1275 to 1318 of SEQ ID NO: 1 (Table 8) (antisense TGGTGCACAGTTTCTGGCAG; MOE gapmer, wing and gap sizes not given here)	3.0
ISIS 416848: MOE gapmer, nucleobases 1275 to 1318 of SEQ ID NO: 1 (Table 8) (antisense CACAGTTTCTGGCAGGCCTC; MOE gapmer, wing and gap sizes not given here)	3.9
